tested system: Melanocortin receptor 4 (Mus musculus) (UniProt P56450)
Sequence (P56450 whole entry): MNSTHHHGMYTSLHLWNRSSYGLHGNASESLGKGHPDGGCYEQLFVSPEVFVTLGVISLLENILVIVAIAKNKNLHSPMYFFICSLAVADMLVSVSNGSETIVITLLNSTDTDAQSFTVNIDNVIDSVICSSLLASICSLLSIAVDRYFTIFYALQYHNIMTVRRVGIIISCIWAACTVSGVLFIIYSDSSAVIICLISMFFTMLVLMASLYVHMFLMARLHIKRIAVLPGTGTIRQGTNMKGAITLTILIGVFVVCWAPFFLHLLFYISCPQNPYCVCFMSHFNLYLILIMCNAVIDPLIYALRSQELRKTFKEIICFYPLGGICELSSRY
measurement description: Agonist activity at mouse MC4R expressed in HEK293 cells by CRE/beta-galactosidase reporter gene assay relative to Ac-His-DPhe7-Arg-Trp-NH2 peptide
Type: functional, cell-based
Kindly supply the reported fold change (FC) values for the records listed here.

Challenge: Look up fold change (FC) with Melanocortin receptor 4 (Mus musculus) (UniProt P56450) for this compound: `CC(=O)N[C@@H](Cc1cnc[nH]1)C(=O)N[C@H](Cc1ccc(N)cc1)C(=O)N[C@@H](CCCNC(=N)N)C(=O)N[C@@H](Cc1c[nH]c2ccccc12)C(N)=O`
Response given: 96

Challenge: Look up fold change (FC) with Melanocortin receptor 4 (Mus musculus) (UniProt P56450) for this compound: `CC(=O)N[C@@H](Cc1cnc[nH]1)C(=O)N[C@H](Cc1ccc(C)cc1)C(=O)N[C@@H](CCCNC(=N)N)C(=O)N[C@@H](Cc1c[nH]c2ccccc12)C(N)=O`
Response given: 2

Challenge: Look up fold change (FC) with Melanocortin receptor 4 (Mus musculus) (UniProt P56450) for this compound: `CC(=O)N[C@@H](Cc1cnc[nH]1)C(=O)N[C@H](Cc1ccc(O)cc1)C(=O)N[C@@H](CCCNC(=N)N)C(=O)N[C@@H](Cc1c[nH]c2ccccc12)C(N)=O`
Response given: 171

Challenge: Look up fold change (FC) with Melanocortin receptor 4 (Mus musculus) (UniProt P56450) for this compound: `CC(=O)N[C@@H](Cc1cnc[nH]1)C(=O)N[C@H](Cc1ccccc1)C(=O)N[C@@H](CCCNC(=N)N)C(=O)N[C@@H](Cc1c[nH]c2ccccc12)C(N)=O`
Response given: 1
